Task for the reader: assign each of the following compounds its reported MIC.
Test system: Pseudomonas aeruginosa
Experiment: Antibacterial activity against Pseudomonas aeruginosa PIR2a selected at 2 times MIC of imipenem by microdilution method
Assay type: functional
Answers are plain numbers, in µg/mL.

Known MIC results, listed for orientation:
C[C@@H](O)[C@H]1C(=O)N2C(C(=O)O)=C(SCCNC=N)C[C@H]12 [IMIPENEM ANHYDROUS] | 16
C[C@H]1COc2c(N3CCN(C)CC3)c(F)cc3c(=O)c(C(=O)O)cn1c23.C[C@H]1COc2c(N3CCN(C)CC3)c(F)cc3c(=O)c(C(=O)O)cn1c23.O | 0.5
C[C@@H](O)[C@H]1C(=O)N2C(C(=O)O)=C(S[C@H]3C[C@@H](C(=O)N4CC[C@H](NC(=O)CNC(=N)N)C4)N(C)C3)[C@H](C)[C@H]12 | 2

Now for a further compound.
// Input: C[C@@H](O)[C@H]1C(=O)N2C(C(=O)O)=C(S[C@@H]3CN[C@H](C(=O)N(C)C)C3)[C@H](C)[C@H]12 . Output its MIC only.
4
